- Test system: Sweetpotato Whitefly (Bemisia tabaci, BEMITA)
- Assay overview: Sweetpotato Whitefly (SPW) foliar spray bioassay on cotton seedlings
- Type: in vivo
- Conditions used: cotton seedlings sprayed at crawler emergence, 2-3 instar nymphs counted 7-9 days after treatment, Abbott-corrected % control
- Experimental: F1, CE1, CE2, CE3, and CE4 (2 mg each) were each dissolved in 2 mL of acetone/methanol (1:1) solvent, forming stock solutions of 1000 ppm for each test molecule. […] Cotton seedlings grown in 3-inch pots, pruned so that only one true leaf remained, were used as test substrate. […] Percent control was measured using Abbott's correction formula (W. S. Abbott, “A Method of Computing the Effectiveness of an Insecticide” J. Econ. Entomol. 18 (1925), pp.265-267) as follows: […]
Readout kind: Mean LC50 PPM (PPM)
Respond numerically; units are PPM and should not be typed.

Guide cases for Mean LC50 PPM, answers given:
>  <Compound>
CC(C(=O)Nc1cn(-c2cccnc2)nc1Cl)S(C)(=O)=O (centres unmarked)

>  <Target desc>
Sweetpotato Whitefly (Bemisia tabaci, BEMITA)

>  <Mean LC50 PPM [PPM]>
4.87

$$$$
>  <Compound>
CN(C(=O)CS(C)(=O)=O)c1cn(-c2cccnc2)nc1Cl

>  <Target desc>
Sweetpotato Whitefly (Bemisia tabaci, BEMITA)

>  <Mean LC50 PPM [PPM]>
21.01

$$$$
>  <Compound>
CS(=O)(=O)CC(=O)Nc1cn(-c2cccnc2)nc1Cl

>  <Target desc>
Sweetpotato Whitefly (Bemisia tabaci, BEMITA)

>  <Mean LC50 PPM [PPM]>
25.35

$$$$
>  <Compound>
CC(C)(C(=O)Nc1cn(-c2cccnc2)nc1Cl)S(C)(=O)=O

>  <Target desc>
Sweetpotato Whitefly (Bemisia tabaci, BEMITA)

>  <Mean LC50 PPM [PPM]>
9.72

$$$$

Now for another entry.
Q: Quick one: Mean LC50 PPM of CC(C(=O)N(C)c1cn(-c2cccnc2)nc1Cl)S(C)(=O)=O (centres unmarked) ?
Result: 5.61
